Source: patent US20120316071A1

Assign Signal/Noise to each entry below.
biological target: T1, Recombinant Human DLL4 (human, UniProt Q9NR61 27-524); assay: ECL (MSD) 96-well plate assay, DLL4 coated at 30 ug/mL, Fab 0.1 uM; signal over blank
T1 construct: Bought recombinant human DLL4 (R&D Systems Cat#1506-D4/CF), coated on the plate; also called delta-like protein 4; rHuman DLL4
One number for each entry.

Please state Signal/Noise for every binder in the list that follows.
1. Fab VH5-51_IGHD5-18*01>3_IGHJ4*01 G104M & V3-4_IGLJ1*01 (Fab, V domains shown, Fab; VH-CH1 (His6/Flag, Plasmid A) and VL-lambda CL (Plasmid E)) VH: EVQLVQSGAEVKKPGESLKISCKGSGYSFTSYWIGWVRQMPGKGLEWMGIIYPGDSDTRYSPSFQGQVTISADKSISTAYLQWSSLKASDTAMYYCARRGYSYMYDYFDYWGQGTLVTVSS VL: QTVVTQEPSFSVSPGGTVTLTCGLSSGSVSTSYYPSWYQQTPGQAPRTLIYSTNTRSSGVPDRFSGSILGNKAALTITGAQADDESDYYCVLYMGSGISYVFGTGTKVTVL
2. Fab VH5-51_IGHD5-18*01>3_IGHJ4*01 G100R & V3-4_IGLJ1*01 (Fab, V domains shown, Fab; VH-CH1 (His6/Flag, Plasmid A) and VL-lambda CL (Plasmid E)) VH: EVQLVQSGAEVKKPGESLKISCKGSGYSFTSYWIGWVRQMPGKGLEWMGIIYPGDSDTRYSPSFQGQVTISADKSISTAYLQWSSLKASDTAMYYCARRRYSYGYDYFDYWGQGTLVTVSS VL: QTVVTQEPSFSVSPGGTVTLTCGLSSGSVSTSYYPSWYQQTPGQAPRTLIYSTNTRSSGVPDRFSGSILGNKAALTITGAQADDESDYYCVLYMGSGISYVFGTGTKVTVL
3. Fab VH5-51_IGHD5-18*01>3_IGHJ4*01 G100D & V3-4_IGLJ1*01 (Fab, V domains shown, Fab; VH-CH1 (His6/Flag, Plasmid A) and VL-lambda CL (Plasmid E)) VH: EVQLVQSGAEVKKPGESLKISCKGSGYSFTSYWIGWVRQMPGKGLEWMGIIYPGDSDTRYSPSFQGQVTISADKSISTAYLQWSSLKASDTAMYYCARRDYSYGYDYFDYWGQGTLVTVSS VL: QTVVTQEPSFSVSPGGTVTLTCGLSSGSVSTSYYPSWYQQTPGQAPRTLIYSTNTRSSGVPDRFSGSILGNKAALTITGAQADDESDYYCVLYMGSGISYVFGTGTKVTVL
4. Fab VH5-51_IGHD5-18*01>3_IGHJ4*01 G100T & V3-4_IGLJ1*01 (Fab, V domains shown, Fab; VH-CH1 (His6/Flag, Plasmid A) and VL-lambda CL (Plasmid E)) VH: EVQLVQSGAEVKKPGESLKISCKGSGYSFTSYWIGWVRQMPGKGLEWMGIIYPGDSDTRYSPSFQGQVTISADKSISTAYLQWSSLKASDTAMYYCARRTYSYGYDYFDYWGQGTLVTVSS VL: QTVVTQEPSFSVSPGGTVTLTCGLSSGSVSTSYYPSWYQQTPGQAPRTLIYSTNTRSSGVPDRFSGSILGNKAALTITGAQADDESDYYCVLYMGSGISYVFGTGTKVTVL
5. Fab VH5-51_IGHD5-18*01>3_IGHJ4*01 G100K & V3-4_IGLJ1*01 (Fab, V domains shown, Fab; VH-CH1 (His6/Flag, Plasmid A) and VL-lambda CL (Plasmid E)) VH: EVQLVQSGAEVKKPGESLKISCKGSGYSFTSYWIGWVRQMPGKGLEWMGIIYPGDSDTRYSPSFQGQVTISADKSISTAYLQWSSLKASDTAMYYCARRKYSYGYDYFDYWGQGTLVTVSS VL: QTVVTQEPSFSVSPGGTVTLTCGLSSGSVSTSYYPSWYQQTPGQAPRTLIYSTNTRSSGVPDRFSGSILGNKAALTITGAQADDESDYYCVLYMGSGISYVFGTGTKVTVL

[29.1, 90.6, 5.8, 26, 134]
